Every entry's value here was drawn from ChEMBL document CHEMBL3044690.

system: Brassica napus; assay: Postemergence herbicidal activity against Brassica napus (oilseed rape) under greenhouse condition at 750 g/ha applied after expansion of true leaf; format: functional
Answer each item with its documented Activity.
Give bare numbers, in %.

Consider the reported Activity for these molecules:
CCOCCOC(=O)/C(C#N)=C(/CC)NCc1cnc(Cl)s1 :: 69
CCOCCOC(=O)/C(C#N)=C(\NCc1cnc(Cl)s1)SC :: 100
CCOCCOC(=O)/C(C#N)=C(/C)NCc1cnc(Cl)s1 :: 96

QUERY: Can you share its Activity? I mean this molecule: `CCOCCOC(=O)/C(C#N)=C(\NCc1cnc(Cl)s1)C(C)C`
RESULT: 100
